- SYSTEM: JNK1 kinase (Homo sapiens, UniProt P45983)
- Sequence (P45983 whole entry): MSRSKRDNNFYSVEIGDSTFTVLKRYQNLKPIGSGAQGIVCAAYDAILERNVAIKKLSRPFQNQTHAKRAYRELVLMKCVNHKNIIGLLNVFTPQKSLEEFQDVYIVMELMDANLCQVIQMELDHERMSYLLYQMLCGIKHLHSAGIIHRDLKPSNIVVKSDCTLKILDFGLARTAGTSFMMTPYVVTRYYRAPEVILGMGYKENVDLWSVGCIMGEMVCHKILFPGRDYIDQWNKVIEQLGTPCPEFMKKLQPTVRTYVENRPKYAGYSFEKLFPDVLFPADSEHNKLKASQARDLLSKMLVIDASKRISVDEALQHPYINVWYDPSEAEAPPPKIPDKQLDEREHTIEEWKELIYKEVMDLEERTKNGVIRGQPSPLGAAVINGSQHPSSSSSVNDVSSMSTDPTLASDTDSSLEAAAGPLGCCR
QUANTITY: IC50

Known results for compounds:
C[C@@H]1CC[C@@H](Nc2cc(NC3CC3O)ncc2C(N)=O)C[C@H]1O (some centres unmarked): > 1000 nM
C[C@@H]1CC[C@@H](Nc2nc(NC(C)(C)C)ncc2C(=O)N2CC2)C[C@H]1O: 500 to 1000 nM
C[C@@H]1CC[C@@H](Nc2nc(NC(C)(C)C)ncc2C(C)(C)O)C[C@H]1O: > 1000 nM
CC(=O)c1cnc(NC(C)(C)C)nc1N[C@@H]1CC[C@@H](C)[C@H](O)C1: 100 to 500 nM
CC(C)(C)Nc1ncc(C(N)=O)c(N2CCC(CO)C2)n1 (centres unmarked): 100 to 500 nM

# input Return reported IC50 for target or system JNK1 kinase (Homo sapiens, UniProt P45983), item CC(C)(C)Nc1ncc(C(N)=O)c(NC2CCCN(C(=O)CC#N)C2)n1 (centres unmarked) .
# output > 1000 nM

# input Return reported IC50 for target or system JNK1 kinase (Homo sapiens, UniProt P45983), item C#Cc1cnc(NC(C)(C)C)nc1N[C@@H]1CC[C@@H](C)[C@H](O)C1 .
# output 500 to 1000 nM

# input Return reported IC50 for target or system JNK1 kinase (Homo sapiens, UniProt P45983), item C[C@@H]1CC[C@@H](Nc2cc(NC3CCC3O)ncc2C(N)=O)C[C@H]1O (some centres unmarked) .
# output 500 to 1000 nM

###

pIC50: −log10 of the molar value.
System: JNK1 kinase (Homo sapiens) | Read-out: pIC50

Known results for molecules:
Cc1cnc(NC(C)(C)C)nc1N[C@@H]1CC[C@@H](C)[C@H](O)C1: < 6.00
C[C@@H]1CC[C@@H](Nc2nc(OC3CC3)ncc2C(N)=O)C[C@H]1O: 6.00 to 6.30
C[C@@H]1CC[C@@H](Nc2nc(N3CCNC(=O)C3)ncc2C(N)=O)C[C@H]1O: 6.00 to 6.30
C[C@@H]1CC[C@@H](Nc2nc(NC(C)(C)C)ncc2/C(N)=N\O)C[C@H]1O: > 7.00

Now examine the next entry.
# input Give recorded pIC50. C[C@@H]1CC[C@@H](Nc2nc(NC(C)(C)C)ncc2-n2ccnn2)C[C@H]1O
# output 6.30 to 7.00
